target: IGF1R (Homo sapiens); assay: Cellular IGF-1R assay: inhibition of IGF1R phosphorylation in transduced Hek293 cells, capture ELISA (MSD); type: cell-based; parameters: Hek293 cells transduced with the corresponding receptors; expressed in transfected cells; host or cells: Hek293 (Hek293-IGF1R)
Sequence (P08069 31-1367): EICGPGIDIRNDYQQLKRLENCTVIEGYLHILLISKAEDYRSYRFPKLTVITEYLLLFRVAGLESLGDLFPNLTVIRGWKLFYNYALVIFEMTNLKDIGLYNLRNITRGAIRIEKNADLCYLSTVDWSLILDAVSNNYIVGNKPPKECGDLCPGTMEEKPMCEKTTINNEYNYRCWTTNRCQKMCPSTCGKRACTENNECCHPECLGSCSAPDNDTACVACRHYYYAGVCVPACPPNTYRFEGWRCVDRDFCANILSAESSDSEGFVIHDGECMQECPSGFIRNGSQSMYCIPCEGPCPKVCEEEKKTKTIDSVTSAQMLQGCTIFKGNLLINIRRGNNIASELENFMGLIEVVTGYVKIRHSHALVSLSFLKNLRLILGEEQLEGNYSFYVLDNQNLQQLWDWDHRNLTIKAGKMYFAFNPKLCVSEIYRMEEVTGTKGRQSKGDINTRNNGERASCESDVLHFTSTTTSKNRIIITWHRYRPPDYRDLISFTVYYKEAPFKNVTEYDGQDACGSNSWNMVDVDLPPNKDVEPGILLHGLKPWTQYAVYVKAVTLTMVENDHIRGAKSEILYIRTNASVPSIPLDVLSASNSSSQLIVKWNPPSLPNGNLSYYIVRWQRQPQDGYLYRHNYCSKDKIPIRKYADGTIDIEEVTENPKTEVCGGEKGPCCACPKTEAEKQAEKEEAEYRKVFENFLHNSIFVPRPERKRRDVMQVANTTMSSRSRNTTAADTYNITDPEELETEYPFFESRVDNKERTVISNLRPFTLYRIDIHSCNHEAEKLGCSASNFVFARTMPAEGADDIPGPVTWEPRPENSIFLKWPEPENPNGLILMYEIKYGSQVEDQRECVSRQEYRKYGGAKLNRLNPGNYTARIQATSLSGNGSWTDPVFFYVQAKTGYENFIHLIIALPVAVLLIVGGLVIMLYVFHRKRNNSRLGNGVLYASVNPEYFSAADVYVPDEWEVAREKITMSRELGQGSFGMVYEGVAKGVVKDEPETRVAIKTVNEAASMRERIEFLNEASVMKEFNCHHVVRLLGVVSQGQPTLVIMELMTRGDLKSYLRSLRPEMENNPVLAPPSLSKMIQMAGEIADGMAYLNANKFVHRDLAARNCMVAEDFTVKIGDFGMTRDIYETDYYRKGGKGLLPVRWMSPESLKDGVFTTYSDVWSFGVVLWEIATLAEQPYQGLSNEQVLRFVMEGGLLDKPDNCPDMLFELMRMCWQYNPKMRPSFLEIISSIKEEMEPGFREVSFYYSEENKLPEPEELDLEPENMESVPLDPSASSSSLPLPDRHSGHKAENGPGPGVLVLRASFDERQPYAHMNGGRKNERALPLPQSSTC
measurement-kind: IC50 (µM)
Hi! Could you send only the number? It should be in µM, unit omitted.

# example entries with known answers
| compound | tested-target | measurement-kind | recorded-number |
| --- | --- | --- | --- |
| Nc1ncnc2c1c(-c1ccc3c(c1)OC(c1ccccn1)CC3)cn2[C@H]1C[C@@H](CN2CC[S+]([O-])CC2)C1 (mixture of isomers) | IGF1R (Homo sapiens) | IC50 | 0.109 |
| Nc1ncnc2c1c(-c1ccc3c(c1)OC(c1ccccn1)CC3)cn2[C@H]1C[C@@H](CN2CCS(=O)(=O)CC2)C1 (mixture of isomers) | IGF1R (Homo sapiens) | IC50 | 0.045 |
| Nc1ncnc2c1c(-c1ccc3c(c1)OC(c1ccccc1)CC3)cn2[C@H]1CC[C@@H](NC(=O)C2CC2)CC1 (mixture of isomers) | IGF1R (Homo sapiens) | IC50 | 0.136 |

Let us examine a further case.
Exercise: State its IC50 for this compound: Nc1ncnc2c1c(-c1ccc3c(c1)OC(c1ccccc1)CC3)cn2[C@H]1C[C@@](O)(Cn2cnnc2)C1 (stereo partly drawn)
Solution: 0.525

---

Measured IC50, listed per entry for reference.
biological target: IGF1R (Homo sapiens); test: Cellular IGF-1R assay: inhibition of IGF1R phosphorylation in transduced Hek293 cells, capture ELISA (MSD); format: cell-based; set-up: Hek293 cells transduced with the corresponding receptors; expressed in transfected cells; host or cells: Hek293 (Hek293-IGF1R)
Report the value in nM with no unit label.

Field: example entries. Status: answers known.
| compound | unit-of-measurement | IC50 |
| --- | --- | --- |
| Nc1ncnc2c1c(-c1ccc3c(c1)OC(C1CCCO1)CC3)cn2[C@H]1CC[C@@H](N2CCS(=O)(=O)CC2)CC1 (mixture of isomers) [Example 64] | nM | 59 |
| CC(C)C(=O)N[C@H]1CC[C@@H](n2cc(-c3ccc4c(c3)OC(c3ccccc3)CC4)c3c(N)ncnc32)CC1 (mixture of isomers) [Example 52] | nM | 99 |
| CCOCC1CCc2ccc(-c3cn([C@H]4C[C@@H](CN5CC[S+]([O-])CC5)C4)c4ncnc(N)c34)cc2O1 (relative stereo) [Example 50] | nM | 36 |
| Nc1ncnc2c1c(-c1ccc3c(c1)OC(C1CCCO1)CC3)cn2C1CC(CN2CC3CC2CS3(=O)=O)C1 (mixture of isomers) [Example 66] | nM | 24 |
| Nc1ncnc2c1c(-c1ccc3c(c1)OC(C1CCCO1)CC3)cn2C1CC(CN2CC3CC2CS3(=O)=O)C1 (mixture of isomers) [Example 67] | nM | 17 |
| CC(=O)NC[C@H]1C[C@@H](n2cc(-c3ccc4c(c3)OC(c3ccccc3)CC4)c3c(N)ncnc32)C1 (mixture of isomers) [Example 16] | nM | 22 |
| Nc1ncnc2c1c(-c1ccc3c(c1)OC(c1ccccc1)CC3)cn2[C@H]1C[C@@H](Cn2ccnc2CO)C1 (mixture of isomers) [Example 18] | nM | 14 |
| Nc1ncnc2c1c(-c1ccc3c(c1)OC(c1ccccc1)CC3)cn2[C@H]1C[C@H](O)C1 (relative stereo) [Example 49] | nM | 96 |

Exercise: # return recorded IC50 for entry CN1CCN(CC2CC(n3cc(-c4ccc5c(c4)OC(c4ccccc4)CC5)c4c(N)ncnc43)C2)CC1=O (centres unmarked) [Example 46]
Solution: 49

Exercise: Please look at this compound and report its IC50: Nc1ncnc2c1c(-c1ccc3c(c1)OC(c1ccccc1)CC3)cn2[C@H]1C[C@@]2(COC(=O)O2)C1 (some centres unmarked) [Example 43]
Solution: 76

Exercise: // Input: Nc1nccn2c1c(-c1ccc3c(c1)OC(c1ccccc1)CC3)nc2[C@H]1C[C@@H](Cn2ccnc2CO)C1 (relative stereo) [Example 39] . Output its IC50 only.
Solution: 218

Exercise: Provide only the value of recorded IC50 for Nc1ncnc2c1c(-c1ccc3c(c1)OC(c1ccccc1)CC3)cn2[C@H]1C[C@@]2(CNC(=O)O2)C1 (some centres unmarked) [Example 44]
Solution: 16

Exercise: Quote IC50 reported for Nc1ncnc2c1c(-c1ccc3c(c1)OC1(CCCCC1)CC3)cn2[C@H]1C[C@@H](CN2CCS(=O)(=O)CC2)C1 [Example 53] please.
Solution: 202

Exercise: Output measured IC50 for this item: Nc1ncnc2c1c(-c1ccc3c(c1)OC(C1CCCO1)CC3)cn2C1CC(O)(CO)C1 (single isomer, unassigned) [Example 33]
Solution: 395

Exercise: Give IC50 for Nc1ncnc2c1c(-c1ccc3c(c1)OC(c1ccccc1)C=C3)cn2[C@H]1C[C@@H](CO)C1 (mixture of isomers) [Example 23]
Solution: 12

Exercise: Provide only the value of recorded IC50 for CC1(O)CC(c2nc(-c3ccc4c(c3)O[C@@H](c3ccccc3)CC4)c3c(N)nccn23)C1 (some centres unmarked) [Example 19]
Solution: 158

Exercise: Please report the measured IC50 for Nc1ncnc2c1c(-c1ccc3c(c1)OC(C1CCCO1)CC3)cn2C1CC(O)(CO)C1 (single isomer, unassigned) [Example 35]
Solution: 55

Exercise: Give me measured IC50, please, for this compound: Nc1ncnc2c1c(-c1ccc3c(c1)OC(C1CCCO1)CC3)cn2[C@H]1CC[C@@H](N2CCS(=O)(=O)CC2)CC1 (mixture of isomers) [Example 65]
Solution: 39

Exercise: Retrieve IC50 measured for CC(=O)N1CCN([C@H]2C[C@@H](n3cc(-c4ccc5c(c4)OC(c4ccccc4)CC5)c4c(N)ncnc43)C2)CC1 (relative stereo) [Example 38] and print it.
Solution: 11

Exercise: Tell me measured IC50 for Nc1ncnc2c1c(-c1ccc3c(c1)OC(c1ccccc1)CC3)cn2[C@H]1C[C@@H](O)C1 (relative stereo) [Example 48] please.
Solution: 88
